Data origin, for the record: paper PMC8086052

# assay: Plasma pharmacokinetics of niraparib and M1, cycle 1 days 1 and 21
# Assay type: in vivo, human
# experimental_parameters: human, plasma, oral, 300 mg/day, Cmax, plasma; Cycle 1 Day 21; Niraparib 300 mg/day (n = 4); geometric mean (SD)
quantity_name: Cmax (ng/mL)
Give just the number in ng/mL; leave the unit off.

Challenge: Identify measured Cmax associated with `NC(=O)c1cccc2cn(-c3ccc([C@@H]4CCCNC4)cc3)nc12`
Response given: 1170

====

# assay: Plasma pharmacokinetics of niraparib and M1, cycle 1 days 1 and 21
# Type: in vivo, human
# experimental_parameters: human, plasma, oral, 200 mg/day, Cmax, plasma; Cycle 1 Day 1; Niraparib 200 mg/day (n = 3); geometric mean (SD)
quantity_name: Cmax (ng/mL)
Give just the number in ng/mL; leave the unit off.

Challenge: Identify measured Cmax associated with `NC(=O)c1cccc2cn(-c3ccc([C@@H]4CCCNC4)cc3)nc12`
Response given: 443

====

# assay: Plasma pharmacokinetics of niraparib and M1, cycle 1 days 1 and 21
# Type: in vivo, human
# experimental_parameters: human, plasma, po, median tmax, single (cycle 1, day 1) and multiple (cycle 1, day 21) oral administration of niraparib 200 and 300 mg/day
quantity_name: Tmax

Challenge: Identify measured Tmax associated with `NC(=O)c1cccc2cn(-c3ccc([C@@H]4CCCNC4)cc3)nc12`
Response given: 3 to 4 h

====

# assay: Plasma pharmacokinetics of niraparib and M1, cycle 1 days 1 and 21
# Format: in vivo, human
# experimental_parameters: human, plasma, oral, 300 mg/day, Cmax, plasma; Cycle 1 Day 1; Niraparib 300 mg/day (n = 6); geometric mean (SD)
quantity_name: Cmax (ng/mL)
Give just the number in ng/mL; leave the unit off.

Challenge: Identify measured Cmax associated with `NC(=O)c1cccc2cn(-c3ccc([C@@H]4CCCNC4)cc3)nc12`
Response given: 530

====

# assay: Plasma pharmacokinetics of niraparib and M1, cycle 1 days 1 and 21
# Type: in vivo, human
# experimental_parameters: human, plasma, oral, 300 mg/day
quantity_name: AUC(0-t)

Challenge: Identify measured AUC(0-t) associated with `NC(=O)c1cccc2cn(-c3ccc([C@@H]4CCCNC4)cc3)nc12`
Response given: 6270 ng·h/mL

====

# assay: Plasma pharmacokinetics of niraparib and M1, cycle 1 days 1 and 21
# Format: in vivo, human
# experimental_parameters: human, plasma, oral, 200 mg/day, Cmax, plasma; Cycle 1 Day 21; Niraparib 200 mg/day (n = 3); geometric mean (SD)
quantity_name: Cmax
Please report the result as a number followed by the unit.

Challenge: Identify measured Cmax associated with NC(=O)c1cccc2cn(-c3ccc([C@@H]4CCCNC4)cc3)nc12 [Niraparib, niraparib]
Response given: 729 ng/mL
